Assay: NCI Yeast Anticancer Drug Screen. Data for the mec2-1 strain (AID 157)
Settings: S. cerevisiae mec2-1 strain, at 11.0 µM, hits give high values
Compounds without any hit were thinned out: in the full panel of roughly 79,000, 15% have a hit. Active and inactive are the calls of the source. Cut-off read from the data, not from the text of the source: active = growth inhibition above about 70%; inactive = the rest.
Endpoint Label: growth inhibition

COC(=O)C1=C(C)NC(C)=C(C(=O)OC)C1c1cccc(/[N+]([O-])=C/c2ccccc2)c1 = 13% (inactive)
O=C(N=Nc1cc(Cl)ccc1Cl)NNc1cc(Cl)ccc1Cl = 3% (inactive)
O=C(O)c1ccccc1-c1ccccc1C(=O)Nc1ccc2c(c1)Cc1ccccc1-2 = 22% (inactive)
CCCCCCCCCCC1CCC(=O)O1 (stereo not drawn) = 0% (inactive)
Clc1cccc(C(Nc2nncs2)Nc2nncs2)c1Cl = 7% (inactive)
CN=C(N)N/N=C/c1ccc2c(c1)Cc1ccccc1-2 = -5% (inactive)
CCCCCCCCCCCC(=O)N(C)C = -27% (inactive)
Cc1[nH]c2ccccc2c1C(c1ccc(N)cc1)c1c(C)[nH]c2ccccc12 = -1% (inactive)
COC(=O)C1=C(C(=O)OC)C2(C)C=CC1O2 (stereo not drawn) = 1% (inactive)
O=C(OCCN1CCCCCC1)C(c1ccsc1)C1CCCCC1 (stereo not drawn) = 17% (inactive)
N#CSc1ccc(S(N)(=O)=O)cc1 = -37% (inactive)
O=[N+]([O-])CC(SCc1ccccc1)c1ccc2c(c1)OCO2 (stereo not drawn) = 76% (active)
Cc1cc(S(=O)(=O)/N=C(/NN)NNc2cccc(C(F)(F)F)n2)c(S)cc1Cl = -3% (inactive)

* * *

Assay: NCI Yeast Anticancer Drug Screen. Data for the cln2 rad14 strain (AID 165);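 note: 0% = growth equal to vehicle treated cultures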
Details: S. cerevisiae cln2 rad14 strain, at 50.0 µM, hits give high values
Compounds without any hit were thinned out: in the full panel of roughly 79,000, 15% have a hit.
Endpoint Label: growth inhibition (%)

Cc1ccc2ccc(O)cc2c1 = 82
NC(=O)NN=C(CS)CS = -11.9
OC1CSCCCSCCSCCCSC1 = 10.7
CC(CC(C)(C)[N+](C)(C)C)[N+](C)(C)C (centres undefined) = 90.8

* * *

Assay: NCI Yeast Anticancer Drug Screen. Data for the mlh1 rad18 strain (AID 175)
Details: S. cerevisiae mlh1 rad18 strain growth inhibition; at 50.0 µM; hits give high values
About 79,000 compounds went through this panel and 15% of them were active in at least one assay; those are over-represented in the sample as a whole.
Endpoint Label: growth inhibition (%)

COc1ccc(Br)c(C(=O)Sc2nnnn2-c2cccc(Cl)c2)c1 = 85
N#CSc1ccc(S(N)(=O)=O)cc1 = 59.1
CN(Cc1cnc2nc(N)nc(N)c2n1)c1ccc(C(=O)N[C@@H](CCC(=O)O)C(=O)O)cc1 = 87.8
CN(C)c1ccc(C(C#N)=C(C#N)C#N)cc1 = 89.6
O=C1C2C(C(=O)N1c1ccc(OCc3ccccc3)cc1)C1c3ccccc3C2C2CCCCN21 (centres undefined) = 90.9
Cc1nc(-[n+]2nc(-c3ccncc3)nn2-c2ccccc2)sc1C = 76.2
O=C(O)c1ccccc1-c1ccccc1C(=O)Nc1ccc2c(c1)Cc1ccccc1-2 = 76.5
O=C1C=CC(=O)N1c1ccc2c(c1)Cc1cc(NC(=O)C(F)(F)F)ccc1-2 = 86
NC(=NCc1ccccc1)N/N=C\c1ccnc2ccccc12 = 44.4
O=S(=O)(CCCl)c1ccccc1Cl = 90.2
CCOC(=O)c1cnc2cc(C(F)(F)F)ccc2c1N=[N+]=[N-] = 59.9
S=C(Nc1ccc(Cl)cc1)SC1CCCCC1 = 91.8
Cc1c(C2=C(Br)C(=O)N(C)C2=O)c(=O)n(C)c(=O)n1C = 91.7
Cc1ccc2[nH]c3c(C)c4cc[n+](C)cc4c(C)c3c2c1 = -26.9
